Hello, the source for this data is patent US12557829B2, in case you need it.

assayExplanation: Single intravenous administration, plasma concentration of coenzyme Q10
Format: in vivo
conditionLabel: rat, 6 mg/kg, rats, read-out: half-life (t1/2,α) in the pre-distribution phase (α phase)
reportedEndpoint: half-life (min)
Hi! Could you send only the number? It should be in min, unit omitted.

Request: Look up half-life: COC1=C(OC)C(=O)C(C/C=C(\C)CC/C=C(\C)CC/C=C(\C)CC/C=C(\C)CC/C=C(\C)CC/C=C(\C)CC/C=C(\C)CC/C=C(\C)CC/C=C(\C)CCC=C(C)C)=C(C)C1=O
Result: 3.3

###

assayExplanation: Single intravenous administration, plasma concentration of coenzyme Q10
Format: in vivo
conditionLabel: rat, 6 mg/kg, rats, read-out: half-life (t1/2,β) in the post-distribution phase (β phase)
reportedEndpoint: half-life (min)
Hi! Could you send only the number? It should be in min, unit omitted.

Request: Look up half-life: COC1=C(OC)C(=O)C(C/C=C(\C)CC/C=C(\C)CC/C=C(\C)CC/C=C(\C)CC/C=C(\C)CC/C=C(\C)CC/C=C(\C)CC/C=C(\C)CC/C=C(\C)CCC=C(C)C)=C(C)C1=O
Result: 52
